Test system: MDA-MB-231
Assay: normalised viability (% of control), CellTiter-Blue; higher = more viable cells (about 100 = DMSO control)
Conditions: 100 nM; incubation time: 72 h
Reported property: normalised viability (%)
Numbers only, in %.

For orientation, consider the following solved cases.
compound=Cc1cccc(-c2nn3c(c2-c2ccnc4ccc(C(N)=O)cc24)CCC3)n1 system=MDA-MB-231 units_of_measure=% value_reported=128
compound="COc1cc(CCc2cc(NC(=O)c3ccc(N4CC(C)NC(C)C4)cc3)n[nH]2)cc(OC)c1 (centres undefined)" system=MDA-MB-231 units_of_measure=% value_reported=105
compound=CC[C@@]1(O)C(=O)OCc2c1cc1n(c2=O)Cc2cc3c(CN(C)C)c(O)ccc3nc2-1 system=MDA-MB-231 units_of_measure=% value_reported=80.5

Form field: normalised viability recorded for `O=C1c2c(O)ccc(O)c2C(=O)c2c(NCCNCCO)ccc(NCCNCCO)c21` with MDA-MB-231 (enter value)
44.2
